Data provenance: ChEMBL document CHEMBL3425442

assay_name: Plasma concentration in C57/Bl6 mouse at 200 mg/kg, ip administered for 1 hr followed by anti-CD3 treatment measured at 2.5 hrs
Type: ADME, organism-based
Set-up: dose 200 mg/kg, route intraperitoneal
property: concentration at 2.5 h (µM)
Answer in µM, number only, no unit symbol.

Could you share which concentration at 2.5 h value was measured for CC1(C)CCc2c(C(=O)Nc3cnn([C@H](c4ccccc4)C4CC[S+]([O-])CC4)c3)n[nH]c2C1 (stereo partly specified) ?
80

---

For each entry below, report its Papp value.
assay_name: Permeability in MDCK cells
Assay type: ADME, cell-based, Canis lupus familiaris
condition_summary: dog, read-out: permeability
Unit ×10⁻⁶ cm/s implied. Number only.

Entry C[C@@]12Cc3[nH]nc(C(=O)Nc4cnn([C@H](c5ccccc5)[C@H]5CCCCS5(=O)=O)c4)c3C[C@@H]1C2(F)F has what Papp?
1.5

Request the reported Papp associated with C[C@@]12Cc3[nH]nc(C(=O)Nc4cnn([C@H](c5ccccc5)C5CCS(=O)(=O)CC5)c4)c3C[C@@H]1C2
4.4

Entry CC1(C)CCc2c(C(=O)Nc3cnn([C@H](c4ccccc4)C4CC[S+]([O-])CC4)c3)n[nH]c2C1 (stereo partly drawn) has what Papp?
1.9
